Values from ChEMBL document CHEMBL5543109

experiment: Self-assembly property of compound in PBS assessed as beta-sheet content; format: physicochemical; details: buffer
experimental.endpoint: Activity

smiles.string: NCCCC[C@@H](N)C(=O)N[C@H](Cc1c[nH]c2ccccc12)C(=O)N[C@H](CCCCN)C(=O)N[C@H](Cc1c[nH]c2ccccc12)C(=O)N[C@H](CCCCN)C(=O)N1CCC[C@H]1C(=O)NCC(=O)N[C@H](CCCCN)C(=O)N[C@H](Cc1c[nH]c2ccccc12)C(=O)N[C@H](CCCCN)C(=O)N[C@H](Cc1c[nH]c2ccccc12)C(=O)N[C@H](CCCCN)C(N)=O
result: 80.2%

smiles.string: NCCCC[C@@H](NC(=O)[C@H](N)Cc1c[nH]c2ccccc12)C(=O)N[C@H](Cc1c[nH]c2ccccc12)C(=O)N[C@H](CCCCN)C(=O)N[C@H](Cc1c[nH]c2ccccc12)C(=O)N1CCC[C@@H]1C(=O)NCC(=O)N[C@H](Cc1c[nH]c2ccccc12)C(=O)N[C@H](CCCCN)C(=O)N[C@H](Cc1c[nH]c2ccccc12)C(=O)N[C@H](CCCCN)C(=O)N[C@H](Cc1c[nH]c2ccccc12)C(N)=O
result: 44.2%

smiles.string: NCCCC[C@@H](N)C(=O)N[C@H](Cc1c[nH]c2ccccc12)C(=O)N[C@H](CCCCN)C(=O)N[C@H](Cc1c[nH]c2ccccc12)C(=O)N[C@H](CCCCN)C(=O)N1CCC[C@@H]1C(=O)NCC(=O)N[C@H](CCCCN)C(=O)N[C@H](Cc1c[nH]c2ccccc12)C(=O)N[C@H](CCCCN)C(=O)N[C@H](Cc1c[nH]c2ccccc12)C(=O)N[C@H](CCCCN)C(N)=O
result: 47%

smiles.string: NCCCC[C@@H](NC(=O)[C@H](N)Cc1c[nH]c2ccccc12)C(=O)N[C@H](Cc1c[nH]c2ccccc12)C(=O)N[C@H](CCCCN)C(=O)N[C@H](Cc1c[nH]c2ccccc12)C(=O)N1CCC[C@H]1C(=O)NCC(=O)N[C@H](Cc1c[nH]c2ccccc12)C(=O)N[C@H](CCCCN)C(=O)N[C@H](Cc1c[nH]c2ccccc12)C(=O)N[C@H](CCCCN)C(=O)N[C@H](Cc1c[nH]c2ccccc12)C(N)=O
result: 63%

* * *

In this section we review reported Retention_time values for a set of compounds.
experiment: Retention time of the compound; type: physicochemical

smiles.string: NCCCC[C@@H](NC(=O)[C@H](N)Cc1c[nH]c2ccccc12)C(=O)N[C@H](Cc1c[nH]c2ccccc12)C(=O)N[C@H](CCCCN)C(=O)N[C@H](Cc1c[nH]c2ccccc12)C(=O)N1CCC[C@@H]1C(=O)NCC(=O)N[C@H](Cc1c[nH]c2ccccc12)C(=O)N[C@H](CCCCN)C(=O)N[C@H](Cc1c[nH]c2ccccc12)C(=O)N[C@H](CCCCN)C(=O)N[C@H](Cc1c[nH]c2ccccc12)C(N)=O
result.units: min
Retention_time: 14.321
--
smiles.string: NCCCC[C@@H](NC(=O)[C@H](N)Cc1c[nH]c2ccccc12)C(=O)N[C@H](Cc1c[nH]c2ccccc12)C(=O)N[C@H](CCCCN)C(=O)N[C@H](Cc1c[nH]c2ccccc12)C(=O)N[C@@H](CC(N)=O)C(=O)NCC(=O)N[C@H](Cc1c[nH]c2ccccc12)C(=O)N[C@H](CCCCN)C(=O)N[C@H](Cc1c[nH]c2ccccc12)C(=O)N[C@H](CCCCN)C(=O)N[C@H](Cc1c[nH]c2ccccc12)C(N)=O
result.units: min
Retention_time: 14.321
--
smiles.string: NCCCC[C@@H](NC(=O)[C@H](N)Cc1c[nH]c2ccccc12)C(=O)N[C@H](Cc1c[nH]c2ccccc12)C(=O)N[C@H](CCCCN)C(=O)N[C@H](Cc1c[nH]c2ccccc12)C(=O)N1CCC[C@@H]1C(=O)N1CCC[C@H]1C(=O)N[C@H](Cc1c[nH]c2ccccc12)C(=O)N[C@H](CCCCN)C(=O)N[C@H](Cc1c[nH]c2ccccc12)C(=O)N[C@H](CCCCN)C(=O)N[C@H](Cc1c[nH]c2ccccc12)C(N)=O
result.units: min
Retention_time: 14.321
--
smiles.string: NCCCC[C@@H](N)C(=O)N[C@H](Cc1c[nH]c2ccccc12)C(=O)N[C@H](CCCCN)C(=O)N[C@H](Cc1c[nH]c2ccccc12)C(=O)N[C@H](CCCCN)C(=O)NCC(=O)NCC(=O)N[C@H](CCCCN)C(=O)N[C@H](Cc1c[nH]c2ccccc12)C(=O)N[C@H](CCCCN)C(=O)N[C@H](Cc1c[nH]c2ccccc12)C(=O)N[C@H](CCCCN)C(N)=O
result.units: min
Retention_time: 11.03
--
smiles.string: NCCCC[C@@H](N)C(=O)N[C@H](Cc1c[nH]c2ccccc12)C(=O)N[C@H](CCCCN)C(=O)N[C@H](Cc1c[nH]c2ccccc12)C(=O)N[C@H](CCCCN)C(=O)N1CCC[C@H]1C(=O)NCC(=O)N[C@H](CCCCN)C(=O)N[C@H](Cc1c[nH]c2ccccc12)C(=O)N[C@H](CCCCN)C(=O)N[C@H](Cc1c[nH]c2ccccc12)C(=O)N[C@H](CCCCN)C(N)=O
result.units: min
Retention_time: 11.212
--
smiles.string: NCCCC[C@@H](N)C(=O)N[C@H](Cc1c[nH]c2ccccc12)C(=O)N[C@H](CCCCN)C(=O)N[C@H](Cc1c[nH]c2ccccc12)C(=O)N[C@H](CCCCN)C(=O)N[C@@H](CC(N)=O)C(=O)NCC(=O)N[C@H](CCCCN)C(=O)N[C@H](Cc1c[nH]c2ccccc12)C(=O)N[C@H](CCCCN)C(=O)N[C@H](Cc1c[nH]c2ccccc12)C(=O)N[C@H](CCCCN)C(N)=O
result.units: min
Retention_time: 11.03
--
smiles.string: NCCCC[C@@H](N)C(=O)N[C@H](Cc1c[nH]c2ccccc12)C(=O)N[C@H](CCCCN)C(=O)N[C@H](Cc1c[nH]c2ccccc12)C(=O)N[C@H](CCCCN)C(=O)N1CCC[C@@H]1C(=O)N1CCC[C@H]1C(=O)N[C@H](CCCCN)C(=O)N[C@H](Cc1c[nH]c2ccccc12)C(=O)N[C@H](CCCCN)C(=O)N[C@H](Cc1c[nH]c2ccccc12)C(=O)N[C@H](CCCCN)C(N)=O
result.units: min
Retention_time: 11.03
--
smiles.string: NCCCC[C@@H](NC(=O)[C@H](N)Cc1c[nH]c2ccccc12)C(=O)N[C@H](Cc1c[nH]c2ccccc12)C(=O)N[C@H](CCCCN)C(=O)N[C@H](Cc1c[nH]c2ccccc12)C(=O)NCC(=O)NCC(=O)N[C@H](Cc1c[nH]c2ccccc12)C(=O)N[C@H](CCCCN)C(=O)N[C@H](Cc1c[nH]c2ccccc12)C(=O)N[C@H](CCCCN)C(=O)N[C@H](Cc1c[nH]c2ccccc12)C(N)=O
result.units: min
Retention_time: 14.321
--
smiles.string: NCCCC[C@@H](NC(=O)[C@H](N)Cc1c[nH]c2ccccc12)C(=O)N[C@H](Cc1c[nH]c2ccccc12)C(=O)N[C@H](CCCCN)C(=O)N[C@H](Cc1c[nH]c2ccccc12)C(=O)N1CCC[C@H]1C(=O)NCC(=O)N[C@H](Cc1c[nH]c2ccccc12)C(=O)N[C@H](CCCCN)C(=O)N[C@H](Cc1c[nH]c2ccccc12)C(=O)N[C@H](CCCCN)C(=O)N[C@H](Cc1c[nH]c2ccccc12)C(N)=O
result.units: min
Retention_time: 14.321
--
smiles.string: NCCCC[C@@H](N)C(=O)N[C@H](Cc1c[nH]c2ccccc12)C(=O)N[C@H](CCCCN)C(=O)N[C@H](Cc1c[nH]c2ccccc12)C(=O)N[C@H](CCCCN)C(=O)N1CCC[C@@H]1C(=O)NCC(=O)N[C@H](CCCCN)C(=O)N[C@H](Cc1c[nH]c2ccccc12)C(=O)N[C@H](CCCCN)C(=O)N[C@H](Cc1c[nH]c2ccccc12)C(=O)N[C@H](CCCCN)C(N)=O
result.units: min
Retention_time: 11.539
